- Tested on: SNB-75 CNS
- Assay protocol: NCI tumour cell line growth inhibition, 48 h; in the data active = GI50 below about 0.43 µM; inactive = the rest
Mark one answer only. Choices: Yes (active), No (inactive)

Task item: Test call, this compound: O=C1C=CC=C[C@@H]2C(C3OCCO3)CC[C@H]12.[C-]#[O+].[C-]#[O+].[C-]#[O+].[Fe] (some centres undefined)
Reply: No

Task item: Test call, this compound: `C/C(=C1\SC(=NCc2cccs2)NC1=O)c1ccc2ncccc2c1`
Reply: No

Task item: Test call, this compound: `N[C@H]1C[C@@H]1c1ccc(-c2cccc(O)c2)cc1`
Reply: No

Task item: Test call, this compound: `CCCN1CCN(c2ccc3nc(-c4ccc5nc(-c6ccc(C(F)(F)F)cc6)[nH]c5c4)[nH]c3c2)CC1`
Reply: No

Task item: Test call, this compound: `Clc1ccc(CNc2ccc3nc(CCC4CCCCC4)[nH]c3c2)cc1`
Reply: No

Task item: Test call, this compound: COc1cc(C2CC(c3cccc(Nc4ccnc5cc(Cl)ccc45)c3)=NN2C=O)cc(OC)c1OC (centres undefined)
Reply: Yes

Task item: Test call, this compound: `O=C1Nc2ccccc2/C1=C\c1c[nH]c2ccc(Br)cc12`
Reply: No

Task item: Test call, this compound: `CCN1C(C)(C)CC(Oc2ccc(C(=O)Nc3ccc(NC(=O)Nc4cc(C(C)(C)C)on4)cc3)nc2)CC1(C)C`
Reply: No

Task item: Test call, this compound: `CSc1nc(N)cc(Oc2ccc(-c3nc(Nc4cccc(C(F)(F)F)c4)n[nH]3)cc2)n1`
Reply: Yes
